These entries and their values trace back to patent US20170298073A1.

- procedure_text: Thermodynamic solubility at room temperature
- Format: physicochemical
- protocol_conditions: 25 °C, organic solvent or mixture, thermodynamic from solid, solvent Isopropanol
assay_readout: solubility

>>> observed_measurement("CNC[C@@H](O)COc1ccc(Cl)c(-c2nc(-c3c(C)noc3C)c(C)c(N3CC4(CCN(C(=O)OC)CC4)C3)n2)c1 [Form A]")
"> 36 mg/mL"

====

- procedure_text: Thermodynamic solubility at room temperature
- Format: physicochemical
- protocol_conditions: 25 °C, organic solvent or mixture, thermodynamic from solid, solvent Dimethylacetamide
assay_readout: solubility

>>> observed_measurement("CNC[C@@H](O)COc1ccc(Cl)c(-c2nc(-c3c(C)noc3C)c(C)c(N3CC4(CCN(C(=O)OC)CC4)C3)n2)c1 [Form A]")
"> 42 mg/mL"
